I'd appreciate it if you could supply boiling point values for the items below.
The reply should contain only the number, in °C.

*Q* What measured boiling point goes with C[Si]1(C)N[Si](C)(C)N[Si](C)(C)N1 ?
*A* 188

*Q* What measured boiling point goes with C/C=C/CCCO ?
*A* 159

*Q* What measured boiling point goes with CN(C)C(C)(C)CO ?
*A* 160

*Q* What measured boiling point goes with CC(C)CC(=O)OC(C)C ?
*A* 142

*Q* What measured boiling point goes with CCCCC(C)(C)C(C)C ?
*A* 160

*Q* What measured boiling point goes with CCCC#CCCCC ?
*A* 152

*Q* What measured boiling point goes with Cc1cc(C)c(O)c(C(C)(C)C)c1 ?
*A* 249

*Q* What measured boiling point goes with Cc1ccc2[nH]c3ccccc3c2c1 ?
*A* 365

*Q* What measured boiling point goes with C=C(C)CCCCCC ?
*A* 145

*Q* What measured boiling point goes with N#CC1CCC1 ?
*A* 150

*Q* What measured boiling point goes with CCCCOC(=O)c1ccccc1C(=O)OCCCC ?
*A* 340

*Q* What measured boiling point goes with C=CCc1ccc(O)c(OC)c1 ?
*A* 253

*Q* What measured boiling point goes with N#Cc1ccc(F)cc1 ?
*A* 189

*Q* What measured boiling point goes with Cc1ccc(CO)c(C)c1 ?
*A* 232

*Q* What measured boiling point goes with CC(=O)OCCc1ccccc1 ?
*A* 233

*Q* What measured boiling point goes with Cc1ccc(C)c(C)n1 ?
*A* 172

*Q* What measured boiling point goes with C=C(C)C(C)=O ?
*A* 98

*Q* What measured boiling point goes with CCCCOB(OCCCC)OCCCC ?
*A* 234

*Q* What measured boiling point goes with CCCCCCCCCCOC(=O)Cl ?
*A* 220

*Q* What measured boiling point goes with C#CCOC ?
*A* 63

*Q* What measured boiling point goes with CN(C)CCC#N ?
*A* 173

*Q* What measured boiling point goes with C/C(=C/CC[C@@]1(C)C2C[C@@H]3[C@H](C2)C31C)CO ?
*A* 302

*Q* What measured boiling point goes with CCc1cccc(N)c1 ?
*A* 214

*Q* What measured boiling point goes with CCC(C)(O)C(C)C (configuration not stated) ?
*A* 140

*Q* What measured boiling point goes with CC(C)=C1CC[C@@H](C)CC1=O ?
*A* 224

*Q* What measured boiling point goes with CC(C)(O)CO ?
*A* 176

*Q* What measured boiling point goes with CCOC(=O)N1CCNCC1 ?
*A* 237

*Q* What measured boiling point goes with CCCN(CCC)N=O ?
*A* 206

*Q* What measured boiling point goes with CCCC(=O)CCC(C)C ?
*A* 178

*Q* What measured boiling point goes with COc1cccc(C(C)=O)c1 ?
*A* 240

*Q* What measured boiling point goes with CCCOC(C)=O ?
*A* 102

*Q* What measured boiling point goes with c1ccc2c(c1)sc1ccccc12 ?
*A* 332

*Q* What measured boiling point goes with CC(C)OC(=O)C(C)C ?
*A* 121

*Q* What measured boiling point goes with CC=C(Cl)CCl ?
*A* 130

*Q* What measured boiling point goes with CCC(O)CO (configuration not stated) ?
*A* 194

*Q* What measured boiling point goes with CCCCCC(C)C ?
*A* 118

*Q* What measured boiling point goes with OCCN1CCNCC1 ?
*A* 246

Sourced from the OPERA property sets (Mansouri et al. 2018)
